The measured values listed here are drawn from paper PMC7042716.

target: BG505_(SOSIP.664) Env trimer (HIV-1 BG505 (clade A), SOSIP.664 with …, stabilised)
MEASUREMENT_LABEL: binding result

>  <BINDER>
561_01_54 (antibody, V domains shown) VH: QGRLFQSGTEVKRPGASVKISCRADDDPYTDDDTFTKYYTHWIRQAPGQRPEWLGVISPHFARPIYSYKFQDRLTLTRDSSLTAVYFELRDLQSDDTGIYFCARDPFGDMYPHYNSHMDVWGGGTTVIVSA VL: EVVLTQSPAILSVSPGDRVILSCKASEGLSSSDLAWYRFKSGQIPTLVIFGASNRARGTPDRFSGSGSGTDFTLTINRVEPEDFATYYCQRYGGTPITFGGGTTLDKK

>  <MEASUREMENT_LABEL>
binding result

>  <DATA_VALUE>
binds

$$$$
>  <BINDER>
561_01_21 (antibody, V domains shown) VH: QRRLFQSGTEVKRPGASVKISCRADDDPYTDDDTFTKYYTHWIRQAPGQRPEWLGVISPHFARPIYSYKFQDRLTLTRDSSLTAVYFELRGLQPDDTGIYFCARDPFGDMYPHYNYHMDVWGGGTTVIVSA VL: EVVLTQSPAILSVSPGDRVILSCKASEGLSSSDLAWYRFKGGQIPTLVIFGTSTRARGTPDRFSGSGSGTDFTLTISRVEPEDFATYYCQRYGGTPITFGGGTTLDKK

>  <MEASUREMENT_LABEL>
binding result

>  <DATA_VALUE>
binds

$$$$
>  <BINDER>
561_03_78 (antibody, V domains shown) VH: QLVQSGGGVRRPGASVKISCETPEYTFTKYWLHWLRQAPGRGLEWMGVVSPHGGRPMFAFEFRDRLTLTRDIHTTTHYMELGGLTSDDTAVYYCARDPFGETFRGHDQPYQMDVWGGGTTIVVSS VL: EPVLTQSPGTLSLSPGERATLSCRARQGFSADHVAWFQKKPGRPPRLLIFEASRRASGTPERFSGSGSGPEYTLTITRVEPEDFAVYYCQSYGSITPLVFGGGTRVDVK

>  <MEASUREMENT_LABEL>
binding result

>  <DATA_VALUE>
binds

$$$$
